B1: Intersectin-1, residues 909 to 971; numbered along this chain, Q15811 (parent)
chain: QGEKVEGLQAQALYPWRAKKDNHLNFNKNDVITVLEQQDMWWFGEVQGQKGWFPKSYVKLISG

variants of: B1; assay: abundance fitness (aPCA) (normalised: wild type 0, dead -1); higher = more abundant; growth selection in yeast, the domain comes from the species named; conditions: Homo sapiens
# cutoff -0.1 applies to abundance fitness; >= gives Condition met, < gives Condition not met

- sequenceData: "QGEKVEGLQAQALYPWRAKKDNHLNFNKNDVITVLEQQDMWWNGEVQGQKGWFPKSYVKLISG [F43N]"
  classification: "Condition not met"
- sequenceData: "QGEKVEGLQAQALYPWRAKKDNHLNFNKNDVITVLEQQDMWWFGEVQGQKGWFMKSYVKLISG [P54M]"
  classification: "Condition not met"
- sequenceData: "QGEKVEGLQAQALYPWQAKKDNHLNFNKNDVITVLEQQDMWWFGEVQGQKGWFPKSYVKLISG [R17Q]"
  classification: "Condition met"
- sequenceData: "QGEKVEGLQAQALYPWRAKKDNHLNFNKNDVITVLEQQDMWWYGEVQGQKGWFPKSYVKLISG [F43Y]"
  classification: "Condition not met"
- sequenceData: "QGEKEEGLQAQALYPWRAKKDNHLNFNKNDVITVLEQQDMWWFGEVQGQKGWFPKSYVKLISG [V5E]"
  classification: "Condition not met"
- sequenceData: "QGEKVEGLQAQALYPWRAKKDNHLNFNANDVITVLEQQDMWWFGEVQGQKGWFPKSYVKLISG [K28A]"
  classification: "Condition not met"
- sequenceData: "QGEKVEGLQAQALYPWRAKKDNHLNFNKNDVKTVLEQQDMWWFGEVQGQKGWFPKSYVKLISG [I32K]"
  classification: "Condition not met"
- sequenceData: "QGEKVEGLQAQALYPWRAKKDNHLNFNKNDVITVLEQQDMWWIGEVQGQKGWFPKSYVKLISG [F43I]"
  classification: "Condition not met"
- sequenceData: "QGEKVEGLQKQALYPWRAKKDNHLNFNKNDVITVLEQQDMWWFGEVQGQKGWFPKSYVKLISG [A10K]"
  classification: "Condition not met"
- sequenceData: "QGEKVEGLQAQALYPWRAKKDNHLNFNKNDVITVLEQQAMWWFGEVQGQKGWFPKSYVKLISG [D39A]"
  classification: "Condition met"
- sequenceData: "QGEKVEGLQAQALYPWRAKKDNHLHFNKNDVITVLEQQDMWWFGEVQGQKGWFPKSYVKLISG [N25H]"
  classification: "Condition met"
- sequenceData: "QGEKVEGLQAQALYPWRAKKDNHLNFNKNDVITVLEEQDMWWFGEVQGQKGWFPKSYVKLISG [Q37E]"
  classification: "Condition not met"
- sequenceData: "QGEKVEGLQAQALYPWRAKKDNHLNFNKNDVITVLEQQDMWWFGEVQGQKGWFPKSYVKLISS [G63S]"
  classification: "Condition not met"
- sequenceData: "QGEKVEGLQAQALYPWRAKKDNHLNFNKNDVITVLEQQDMWWFGEVQGQKGWFPKSYVKLIWG [S62W]"
  classification: "Condition met"
- sequenceData: "QGEKVEGLQAQALYPWRAKKDNQLNFNKNDVITVLEQQDMWWFGEVQGQKGWFPKSYVKLISG [H23Q]"
  classification: "Condition not met"
- sequenceData: "QGEKVEGLQAQALYEWRAKKDNHLNFNKNDVITVLEQQDMWWFGEVQGQKGWFPKSYVKLISG [P15E]"
  classification: "Condition met"
- sequenceData: "QGEKVEGLQAQALYPWRAKKENHLNFNKNDVITVLEQQDMWWFGEVQGQKGWFPKSYVKLISG [D21E]"
  classification: "Condition met"
- sequenceData: "QGEKVEGLQAQALYPWRAKKDNHLNFNKNDVITVLEQQDMWWFGEVQGQMGWFPKSYVKLISG [K50M]"
  classification: "Condition not met"
